Cited source for all entries: patent US20220185900A1

- Tested On: T1, Macaca fascicularis (mf) RET.mmh (Macaca fascicularis)
- T1 construct: also called monkey RET
- T1 chain: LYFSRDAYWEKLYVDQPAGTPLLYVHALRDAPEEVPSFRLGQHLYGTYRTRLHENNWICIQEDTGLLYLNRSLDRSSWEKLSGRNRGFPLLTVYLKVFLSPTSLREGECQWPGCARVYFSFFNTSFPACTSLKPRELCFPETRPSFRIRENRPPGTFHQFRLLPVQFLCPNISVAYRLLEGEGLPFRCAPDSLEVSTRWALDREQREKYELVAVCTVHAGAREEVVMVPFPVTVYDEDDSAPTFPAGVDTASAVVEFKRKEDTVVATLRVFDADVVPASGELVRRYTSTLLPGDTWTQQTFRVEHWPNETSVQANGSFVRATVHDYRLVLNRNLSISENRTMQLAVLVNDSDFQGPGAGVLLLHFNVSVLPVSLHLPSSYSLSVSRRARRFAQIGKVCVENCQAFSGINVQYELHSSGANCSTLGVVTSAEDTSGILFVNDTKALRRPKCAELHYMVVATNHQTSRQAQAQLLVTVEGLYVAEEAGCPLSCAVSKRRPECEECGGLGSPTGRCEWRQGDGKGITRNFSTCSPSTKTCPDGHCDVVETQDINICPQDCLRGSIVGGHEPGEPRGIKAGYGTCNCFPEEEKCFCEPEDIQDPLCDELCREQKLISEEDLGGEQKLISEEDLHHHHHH
- Measurement Description: SPR Biacore T200, mAb capture, 25 C
Known t½ of a selection of binders
# unit: min | format: bare number

H4H8056P (antibody, human IgG4, V domains shown, human IgG4 Fc (H4H prefix)) VH: QVQLVESGGGVVQPGRSLRLSCAASGFTFRNYGMHWVRQAPGKGLEWVAVKRYDGSDEYFVDSVKGRFTISRDNSKNTLFLQMNSLRVDDTAVYYCARETPITGTTLDYWGQGTLVTVSS VL: DIQMTQSPSSLSASVGDRVTITCRTSQSITNYLNWYQQKPGKAPKLLIYAASRSQSGVPSRFSGSGSGTDFTLTISSLQPEDFATYYCQQSYSTPLTFGGGTKVEIK ... 20
H4H8083P (antibody, human IgG4, V domains shown, human IgG4 Fc (H4H prefix)) VH: QVQLVESGGGVVQPGRSLRLSCAASGFTFNNYVMHWVRQAPGKGLEWVALIWYDGSNKYYADSVKGRFTISRDNSKNALNLQMNSLRAEDTAVYFCARVSIAARNYYYGGLDVWGQGTTVTVSS VL: EIVLTQSPGTLSLSPGERATLSCRASQSVSSTYLAWYQQKPGQAPRLLIYGASSRATGIPDRFSGSGSGTDFTLTISRLEPEDFAVYYCQHYGGSPLTFGGGTKVEIK ... 16

Alright, here's another binder for you.
QUERY: Param item = H4H8066P (antibody, human IgG4, V domains shown, human IgG4 Fc (H4H prefix)) VH: EVQLVESGGGLVQPGGSLRLSCEASGFTFSRYAMTWVRQAPGKGLEWVSGISGSGGSTFYVDSLQGRFTLSRDNSKHTLFLQMNSLRAEDTAIYYCAKENTYGHFDYWGQGTLVTVSS VL: DIQLTQSPSFLSASVGDRVTITCWASQDISTYLAWYQQKPGKAPQVLIYAASSLQYGVPSRFSGSGSGTEFTLTITSLQPEDFATYYCQQLIGYPYIFGQGTKLEIK ; retrieve measured t½.
RESULT: 13
